- run description: chemical genetic growth profiling, strain panel (AID 1159580);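 note: tested at 20 µM; growth read once vehicle control cultures reached saturation at 30 °C; 1 = growth at the plate median or of vehicle wells; lower values mean less growth of the strain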
- condition notes: S. cerevisiae deletion strains, growth OD, locus YAL013W, strain DEP1, stronger effect = lower value
About 2,000 (36%) of roughly 5,500 compounds were called active. Another 18% or so got no clear call; they are omitted. This is one part of the list.
// reported normalized growth for each item listed

| compound | normalized growth |
| --- | --- |
| CC1(C)O[C@@H]2CC3C4CCC5=CC(=O)CCC5(C)C4(F)C(O)CC3(C)[C@]2(C(=O)CCl)O1 (stereo not given in full) | 0.996 |
| N#CC(C#N)=Cc1ccc(-c2cc(C(F)(F)F)ccc2Cl)o1 | 1.01 |
| CC[C@H](C)C(=O)O[C@H]1C[C@@H](C)C=C2C=C[C@H](C)[C@H](CC[C@@H]3C[C@@H](O)CC(=O)O3)[C@H]21 | 0.982 |
| Cc1cc(NC(=O)c2c(-c3c(Cl)cccc3Cl)noc2C)c([N+](=O)[O-])cc1C | 1.01 |
| COC(=O)C(C)c1ccc(C(=O)c2cccs2)cc1 (stereo not given) | 0.998 |

====

- run description: chemical genetic growth profiling, strain panel (AID 1159580);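 note: tested at 20 µM; growth read once vehicle control cultures reached saturation at 30 °C; 1 = growth at the plate median or of vehicle wells; lower values mean less growth of the strain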
- condition notes: S. cerevisiae deletion strains, growth OD, locus YDR297W, strain sur2, stronger effect = lower value
The campaign covered roughly 5,500 compounds. About 2,000 (36%) were called active. About 18% were inconclusive and are not listed. Some of the results follow.

| molecule | normalized growth |
| --- | --- |
| C=C1C(=O)OC2CC1C(OC(C)=O)C/C(C)=C/CC/C(C)=C/CC[C@]2(C)O (stereo partly specified) | 0.997 |
| COc1cc([C@@H]2c3cc4c(c(O)c3C[C@H]3COC(=O)[C@@H]32)OCO4)cc(OC)c1OC | 0.976 |
| CC(C)(Oc1ccc(C2CC2(Cl)Cl)cc1)C(=O)O (stereo unspecified) | 0.998 |
| Cc1cc(NC(=O)C2=C(O)c3ccccc3S(=O)(=O)N2C)no1 | 0.973 |
| C=C1C(=O)O[C@@H]2C3O[C@]3(C)CC/C=C(\C)CC[C@@H]12 (stereo partly specified) | 0.998 |
| NC(=O)c1cccc(N)c1 | 0.98 |
| COc1cc2c(cc1OC)C1Cc3ccc(OC)c(OC)c3CN1CC2 (stereo unspecified) | 0.975 |
| CC(C)C(C)/C=C/C(C)C1CCC2C3=CC=C4CC(O)CCC4(C)C3CCC21C (stereo unspecified) | 0.993 |
| CN1C(C(=O)Nc2ccccn2)=C(O)c2ccccc2S1(=O)=O | 0.945 |
| CC(C)COCC(CN(Cc1ccccc1)c1ccccc1)N1CCCC1 (stereo unspecified) | 1.02 |
| COc1ccc2c(c1)O[C@H]1c3ccc(OC)cc3OC[C@@H]21 | 1.03 |

====

- run description: chemical genetic growth profiling, strain panel (AID 1159580);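 note: tested at 20 µM; growth read once vehicle control cultures reached saturation at 30 °C; 1 = growth at the plate median or of vehicle wells; lower values mean less growth of the strain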
- condition notes: S. cerevisiae deletion strains, growth OD, locus YHR087W, strain rtc3, stronger effect = lower value
Among all 5,500 compounds or so, about 2,000 (36%) were called active. Another 18% or so got no clear call; they are omitted. Some of the results follow.
# label 1 = normalized growth below 1 (exclusive); label 0 = normalized growth at/above 1

| compound | assigned category |
| --- | --- |
| Cc1cccc2c1N(C(=S)Nc1ccccc1Cl)CCC2 | label 1 |
| COC(=O)c1c(-c2c(Cl)cccc2Cl)noc1NC(=O)NN1CCCCC1 | label 0 |
| Cc1onc(-c2c(F)cccc2Cl)c1C(=O)c1ccc(F)cc1 | label 1 |
| COCCCNC(=S)Nc1ccc(C)cc1C | label 0 |
| Cc1ccc(NS(C)(=O)=O)cc1N=Cc1ccc(Cl)c(Cl)c1 | label 0 |
| Cc1onc(-c2c(Cl)cccc2Cl)c1C(=O)Oc1ccc(Cl)c(Cl)c1 | label 0 |
| Cc1onc(-c2c(F)cccc2Cl)c1C(=O)Oc1ccccc1 | label 1 |
| O=[N+]([O-])c1ccc(N2CCCN(C(=S)Nc3ccc(Cl)cc3Cl)CC2)nc1 | label 1 |
| O=[N+]([O-])c1ccc2c(c1)NC(c1ccc([N+](=O)[O-])s1)O2 (stereo not given) | label 1 |
| COC(=O)c1sccc1-c1ccc(C(C)=O)o1 | label 1 |
| N#Cc1c(F)cccc1Oc1ccc(F)cc1 | label 1 |
| Cc1ccc(CC(=O)O)cc1 | label 1 |

// data source = PubChem BioAssay AID1159580
